EXPERIMENT: A549 lung cancer cell viability effects, profiling panel, resazurin fluorescence, 24 h, PK04 Diversity Set (AID 1171); further: test concentration not given here
APPLIED_CONDITIONS: higher = more signal, called active from +8 up or from −8 down
Rule: Satisfied for z-score not less than -0.2, Not satisfied for anything less.

Cc1cc(C)c(C(O)C2C=CC3C(=O)NC(=O)C3N2Nc2ccc(Cl)cc2Cl)c(C)c1 (stereo unspecified) :: Not satisfied

Is z-score for "COC(=O)C(CC#Cc1ccc2c(c1)[C@]1(C(=O)N2)[C@H](C(=O)N2CCN(c3ncccn3)CC2)[C@H]2C(=O)O[C@H](c3ccccc3)[C@H](c3ccccc3)N2[C@@H]1c1ccc(OCCO)cc1)C(=O)OC" at or above -0.2? Satisfied

Is z-score for "CCOC(=O)C1=CC[C@@H](c2ccc(OCc3ccccc3)c(OC)c2)N(S(=O)(=O)c2ccc(C)cc2)[C@H]1c1ccc(SC)cc1" at or above -0.2? Satisfied

Is z-score for "O=C(CS)NCCCCCNC(=O)[C@@H]1C[C@@H]2C(=O)N3CCC[C@H]3C(=O)N2[C@@H]1c1cccc(OCCO)c1" at or above -0.2? Not satisfied

Is z-score for "COC(=O)C(CC#Cc1ccc2c(c1)[C@]1(C(=O)N2)[C@H](c2ccccc2OCCO)N2[C@H](c3ccccc3)[C@H](c3ccccc3)OC(=O)[C@H]2[C@@H]1C(=O)NC[C@H](O)c1ccccc1)C(=O)OC" at or above -0.2? Satisfied

Is z-score for CC(C)(C)N1CC=CC23O[C@@H]4C=CCCOC(=O)C4[C@H]2C(=O)N(CCO)[C@@H]3C1=O (stereo partly specified) at or above -0.2? Not satisfied

====

TARGET: NADPH oxidase 5 (Homo sapiens) (UniProt Q96PH1)
Sequence (Q96PH1 whole entry, looked up): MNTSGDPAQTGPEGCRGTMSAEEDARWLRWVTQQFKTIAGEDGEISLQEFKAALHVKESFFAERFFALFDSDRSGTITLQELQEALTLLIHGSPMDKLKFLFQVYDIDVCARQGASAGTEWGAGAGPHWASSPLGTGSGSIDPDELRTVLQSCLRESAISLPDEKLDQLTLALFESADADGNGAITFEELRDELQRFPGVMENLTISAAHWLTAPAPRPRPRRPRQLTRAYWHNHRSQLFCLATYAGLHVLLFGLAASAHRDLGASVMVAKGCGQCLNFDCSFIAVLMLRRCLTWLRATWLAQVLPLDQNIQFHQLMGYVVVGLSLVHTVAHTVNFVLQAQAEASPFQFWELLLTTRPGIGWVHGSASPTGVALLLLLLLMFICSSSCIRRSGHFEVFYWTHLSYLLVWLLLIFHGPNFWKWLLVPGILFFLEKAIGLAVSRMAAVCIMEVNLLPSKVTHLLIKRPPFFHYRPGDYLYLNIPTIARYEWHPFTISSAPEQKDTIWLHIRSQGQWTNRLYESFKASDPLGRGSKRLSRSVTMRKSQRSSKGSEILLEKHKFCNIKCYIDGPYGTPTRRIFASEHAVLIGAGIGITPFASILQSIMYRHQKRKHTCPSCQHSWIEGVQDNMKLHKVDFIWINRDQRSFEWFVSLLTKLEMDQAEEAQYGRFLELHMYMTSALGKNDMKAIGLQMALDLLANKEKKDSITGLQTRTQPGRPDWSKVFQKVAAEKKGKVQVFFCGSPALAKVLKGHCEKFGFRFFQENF
EXPERIMENT: NOX5-dependent H2O2 signal modulators, primary screen, NOX inhibitor project, cell-based, HEK293-NOX5, Amplex Red fluorescence (AID 1161)
APPLIED_CONDITIONS: HEK293-NOX5, ionomycin, 45 min, higher = more signal
Kindly supply the reported z-score values for the records listed here.
Give bare numbers.

Example results:
C=C(COC)/C(=C/C[C@H](OC(=O)c1ccncc1)c1ccccc1OCCO)c1cnc2ccccc2c1 :: -0.71
C=C[C@@H](OC)[C@H](OC(=O)Nc1ccc(SC)cc1)c1ccc(O)c(F)c1 :: -1.26
[N-]=[N+]=NCc1ccccc1C[C@]1(C(N)=O)N=C(c2ccc(OCCCO)cc2)O[C@H]1c1ccccc1 :: -1.95

Batch request: z-score for each of the following molecules.
1. C=CCN1Cc2ccccc2[C@H]2OC(c3ccc(OCCCO)cc3)=N[C@@]2(CC=C)C1=O
2. COC(=O)c1ccc([C@H](NC(=O)c2ccco2)[C@]2(C)C[C@H]2C2CCCCC2)cc1
3. CCCCCCCCCCC(O)C1C=CC2C(=O)N(C)C(=O)C2N1Nc1ccc([N+](=O)[O-])cc1[N+](=O)[O-] (stereo not given)
4. [N-]=[N+]=NCc1ccccc1C[C@@]1(C(=O)N2CCOCC2)N=C(c2ccc(OCCCO)cc2)O[C@@H]1c1ccccc1
5. CCOC(=O)C[C@H]1[C@H](OC(=O)c2cc3ccccc3oc2=O)[C@@H](NC(=O)c2ccc(-c3ccccc3)cc2)c2cc(OCCCO)ccc2N1C(=O)c1ccccc1
6. [N-]=[N+]=Nc1ccccc1C[C@]1(C(=O)N2CCOCC2)N=C(c2ccc(OCCCO)cc2)O[C@H]1c1ccccc1

1: 0.034; 2: 0.289; 3: -0.414; 4: -2.14; 5: 0.748; 6: -1.47

Batch request: z-score for each of the following molecules.
1. C=CC[C@@]1(C(=O)N2CCOCC2)N=C(c2ccc(OCCCO)cc2)O[C@@H]1c1ccccc1CN=[N+]=[N-]
2. COCCOC(=O)N1C(=O)[C@@]2(c3cc(C#CC4=CCCCC4)ccc31)[C@H](c1ccc(OCCO)cc1)N1[C@H](c3ccccc3)[C@H](c3ccccc3)OC(=O)[C@H]1[C@@H]2C(=O)NC[C@H](O)c1ccccc1
3. CC(CO)N1C(=O)[C@@H]2[C@H]3C(=O)OCC=C[C@H]3OC23C=CCN(CCN2CCOCC2)C(=O)[C@@H]13 (stereo not given in full)
4. C[C@]1(C(=O)NC2CC2)c2ccccc2C(=O)N(Cc2ccccc2)[C@H]1c1ccc(CO)cc1
5. O=C1O[C@H](c2ccccc2)[C@H](c2ccccc2)N2[C@H]1[C@@H](C(=O)N1CCN(c3ncccn3)CC1)[C@]1(C(=O)Nc3ccc(C#CC4(O)CCCCCC4)cc31)[C@H]2c1ccc(OCCO)cc1
6. Cc1ccc(S[C@]2(C(=O)O)CC(=O)N(Cc3cc(C(F)(F)F)cc(C(F)(F)F)c3)[C@@H]2c2ccc(CO)cc2)cc1

-1.07
1.44
1.2
-0.249
1.35
0.0502

====

EXPERIMENT: basal S. cerevisiae growth modulation, no modifier, primary screen, OD600, strain BY4716, 24 h, basal condition (AID 1173)
APPLIED_CONDITIONS: OD600, 24 h, called active from +8 up or from −8 down
The source made the active and inactive calls.
Parameter call: string, one of active, inactive

Some entries whose results are on file:
COC(=O)[C@@]1(Cc2ccc(OC)cc2)[C@H]2c3cc(C(=O)N4CCCC4)n(Cc4c(-c5ccccc5)noc4C)c3C[C@H]2CN1C(=O)c1ccccc1 :: inactive
[N-]=[N+]=NCc1ccccc1[C@@H]1OC(c2ccc(OCCCO)cc2)=N[C@]1(CCS(=O)(=O)c1ccccc1)C(=O)NCC(O)CO (some centres not stated) :: inactive
CCCNC(=O)[C@@]1(c2ccc([N+](=O)[O-])cc2)CC(=O)N(C2CCCCC2)[C@@H]1c1ccc(CO)cc1 :: inactive

Turning to the following molecule.
So what was the verdict on "O=C(N1CCCCC1)[C@@]1(CCS(=O)(=O)c2ccccc2)COC(c2ccc(OCCCO)cc2)=N1" in this test? inactive

====

TARGET: NADPH oxidase 5 (Homo sapiens) (UniProt Q96PH1)
EXPERIMENT: NOX5-dependent H2O2 signal modulators, primary screen, NOX inhibitor project, cell-based, HEK293-NOX5, Amplex Red fluorescence (AID 1161)
APPLIED_CONDITIONS: HEK293-NOX5, ionomycin, 45 min, higher = more signal
Kindly supply the reported z-score values for the records listed here.
Answers are plain numbers.

CC(C)N1C(=O)c2ccccc2[C@@H](C(=O)NC2CC2)[C@@H]1c1ccc(CO)cc1 :: 0.442
COc1ccc(CN(C2=CC[C@@]3(C(N)=O)C(=O)C(Cl)=C(Cl)C(=O)[C@@]3(C#N)C2)S(=O)(=O)c2ccc(Br)cc2)cc1 :: 0.362

Batch request: z-score for each of the following compounds.
1. [N-]=[N+]=Nc1ccccc1[C@H]1OC(c2ccc(OCCCO)cc2)=N[C@@]1(CCS(=O)(=O)c1ccccc1)C(=O)NCCN1CCOCC1
2. COC(=O)c1cn(C[C@@H](Cc2ccccc2)NC(=O)N[C@H](CO)CCc2oc(C(C)=O)c(C(=O)OC)c2C(=O)OC)nn1
3. COCCOC(=O)N1C(=O)[C@@]2(c3cc(C#CCC(C(=O)OC)C(=O)OC)ccc31)[C@H](C(=O)N1CCc3cc(OC)c(OC)cc3C1)[C@H]1C(=O)O[C@H](c3ccccc3)[C@H](c3ccccc3)N1[C@@H]2c1ccc(OCCO)cc1

1: -1.47; 2: 1.84; 3: 1.42

====

EXPERIMENT: CREB reporter modulators without forskolin, primary screen, cell-based, PC12, CRE-LacZ reporter, unstimulated (AID 1145)
APPLIED_CONDITIONS: no forskolin, luminescence, 4.5 h, higher = more signal, called active from +8 up or from −8 down
Kindly supply the reported z-score values for the records listed here.
One number for each entry.

Example results:
Cc1ccc(S[C@]2(C(=O)NCC(F)(F)F)CC(=O)N(Cc3ccccc3)[C@@H]2c2ccc(CO)cc2I)cc1 :: -0.581
COc1ccccc1CN1C(=O)c2ccccc2[C@@]2(Cc3ccccc3N(CC(F)(F)F)C2=O)[C@@H]1c1ccc(CO)cc1 :: 1.24
[N-]=[N+]=Nc1ccccc1[C@H]1OC(c2ccc(OCCCO)cc2)=N[C@@]1(Cc1ccccc1)C(=O)N1CCCCC1 :: 0.722
CC(C)[Si](C#CCCCC#N)(O[C@H](c1ccccc1)c1cn([C@H](CO)Cc2ccccc2)nn1)C(C)C :: -0.463
CCOC(=O)C[C@H]1[C@H](OC(=O)c2ccc(C(=O)c3ccccc3)cc2)[C@@H](NC(=O)Cc2ccc(OC)cc2)c2cc(OCCCO)ccc2N1C(=O)c1ccccc1 :: 1.47

Batch request: z-score for each of the following compounds.
1. COC(=O)[C@@]1(Cc2ccccc2)[C@@H]2C(=CC(=O)[C@H]2CC(=O)C(=O)N(C)C)CN1C(=O)c1ccccc1
2. COCCCNC(=O)[C@]1(CCS(=O)(=O)c2ccccc2)N=C(c2ccc(OCCCO)cc2)O[C@@H]1c1ccccc1CN=[N+]=[N-]

0.0075
-0.781
